# Tested on: P. falciparum 3D7 growth, pLDH absorbance
# Assay method text: blood-stage malaria parasite growth potency – strain 3D7, dose response (AID 2305)
pIC50: −log10 of the molar value.
Listed next: entries and their corresponding pIC50.
Experimental endpoint: pIC50

Compound | Recorded measurement
CCC(=C(CC)c1ccc(O)c(CNC2CCCCC2)c1)c1ccc(O)c(CNC2CCCCC2)c1 | 6.82
O=C(Nc1cccc(F)c1)N(Cc1ccc(-c2ccc(CN3CCNCC3)cc2)cc1)C1CCN(Cc2ccccc2)CC1 | 6.11
CCC(C)NC(=O)CN1CN(c2ccccc2)C2(CCN(C(=O)c3ccc(-c4ccccc4)cc3)CC2)C1=O (stereo unspecified) | 6.89
Nc1nc2c(ncn2OC[C@H](CO)OCP(=O)(O)O)c(=O)[nH]1 | 6.47
CCOc1ccc2c(c1)C(C)(c1ccc3c(c1)C(C)CC(C)(C)N3)CC(C)(C)N2 (stereo unspecified) | 6.10
CCc1cc(Cc2cnc(N)nc2N)cc(CC)c1OC | 5.95
CCc1ccccc1NC(=O)CN1CCN(c2ncnc3scc(-c4ccc(F)cc4)c23)CC1 | 6.15
Cc1cccc2[nH]c(-c3cccc(-c4ccc(CNCCc5ccncc5)cc4)c3)nc12 | 6.92
COc1cc(-c2nc(-c3ccccc3)c(-c3ccc([N+](=O)[O-])cc3)[nH]2)cc(OC)c1O | 6.08
CC(C)CCN(Cc1cncn1Cc1cccc(C(F)(F)F)c1)C(=O)c1ccccc1C#N | 6.21
Nc1nc2c(cnn2CCCCCCCP(=O)(O)O)c(=O)[nH]1 | 6.33
NCC1(c2nc(-c3ccc(Cl)c(O)c3)c(-c3ccncc3)[nH]2)CCCCC1 | 6.13
O=C(Nc1ccc(OC2CCN(Cc3ccc(F)cc3)CC2)c(Cl)c1)c1ccc(F)cc1 | 6.72
Cc1ccc(O)cc1Nc1ccnc2ccc(-c3cccc(CN(C)C)c3)cc12 | 6.29
CCCCCCNC[C@@H](O)[C@H](Cc1ccccc1)NC(=O)c1cc(NCC)cc(N2CCCCS2(=O)=O)c1 | 6.00
CCCNC(=O)Nc1cc2cc(-c3cccc(CN4CCCCC4)c3)ccc2n2c(C)nnc12 | 5.95

###

# System: P. falciparum 3D7 growth, pLDH absorbance
# Assay method text: blood-stage malaria parasite growth potency – strain 3D7, dose response (AID 2305)
pIC50: −log10 of the molar value.
Listed next: entries and their corresponding pIC50.

Molecule | pIC50
CN(C)c1nc2cc(-n3cnc4cc(-c5ccc(Cl)cc5)sc4c3=O)ccc2n1CCCN1CCCCC1 | 6.08
CCOC(=O)c1cn(CC)c2cc(N(C)CCc3ccc(OC)c(OC)c3)c(F)cc2c1=O | 6.37
CCc1ccc(NC(=O)c2cccc(CN3CCCN(Cc4cccc(O)c4)CC3)c2)cc1 | 6.05
COc1ccc(N2CCN(C(CNC(=O)C3CCCCC3)c3ccc4c(c3)OCO4)CC2)cc1 (stereo unspecified) | 6.24
N#Cc1ccc(N(CC(=O)NCCc2ccc(F)cc2)CC2CC2)c2ccccc12 | 6.03
Oc1cc(Nc2ccnc3cc(-c4cccc(CN5CCCCC5)c4)ccc23)c(F)cc1Cl | 7.00
COc1ccc(CC(=O)NC(CCN2CCC3(CC2)CN(S(C)(=O)=O)c2ccccc23)c2ccc(Cl)c(Cl)c2)cc1OC (stereo unspecified) | 6.00
CC(C)c1ccc2c(c1)C(=O)c1ccc(C(=O)O)cc1S2(=O)=O | 6.33
Cc1nc(-c2cccc(Nc3nccc(NCC(O)c4cccc(C(F)(F)F)c4)n3)c2)cs1 (stereo unspecified) | 6.20
CCCCCN1CCC(CNS(=O)(=O)c2ccc(C(=O)Nc3cccc(C(F)(F)F)c3)cc2)CC1 | 6.12
Cc1cc(C(=O)Nc2ccc3c(c2)CCN3C2CCN(Cc3csc4ccccc34)C2)no1 (stereo unspecified) | 6.92
COc1ccccc1N1CCN(CCCCN(C(=O)Nc2cccc(Cl)c2)C(=O)Nc2cccc(Cl)c2)CC1 | 6.15
CC(C)CCn1c(Sc2ccc(C#N)c([N+](=O)[O-])c2)nnc1-c1ccc(N(C)C)cc1 | 6.10
Nc1ccc(-c2cc(Cl)cc(Cl)c2)cc1-c1cc2ccccc2[nH]1 | 6.16
CC1CCCCN1CCCNC(=O)c1cccc(-c2cc3cc(Cl)c(Cl)cc3[nH]2)c1 (stereo unspecified) | 6.06
CC1CN(c2cc(=O)n(Cc3ccc(NC(=O)Nc4ccc(-c5ccccc5)cc4)cc3)cn2)CC(C)N1 (stereo unspecified) | 6.01
Fc1ccc(C=NNc2ccnc3ccc(C(F)(F)F)cc23)cc1 | 5.96
COc1ccc(-c2ccc(NC(=O)c3cccc(Cl)c3)cc2)cc1CN1CCC(O)CC1 | 6.15
CCn1cc(C=C2Oc3c(ccc(O)c3CN3CCCCC3)C2=O)c2cc(OC)ccc21 | 6.28
Cc1cc(N(C)C)nc(Nc2ccc(NC(=O)c3ccccc3F)cc2)n1 | 5.94
CCNc1cc(C)nc(Nc2ccc(NS(=O)(=O)c3cc(OC)ccc3OC)cc2)n1 | 6.07

###

# System: P. falciparum 3D7 growth, pLDH absorbance
# Assay method text: blood-stage malaria parasite growth potency – strain 3D7, dose response (AID 2305)

Compound | Unit label | IC50
O=C(OCC1CCN(Cc2ccccc2)C1)c1ccc(Cl)cc1 (stereo unspecified) | nM | 680
CN1CCN(c2nc(NCCNc3ccc([N+](=O)[O-])cc3)c3ccccc3n2)CC1 | nM | 1320
CN1CCC(N2CCN(Cc3cccc(-c4ccc(-c5nc6ccccc6[nH]5)cc4)c3)CC2)CC1 | nM | 160
Cc1noc(C)c1-c1ccc2c(Nc3nccc4ccccc34)c(C(N)=O)cnc2c1 | nM | 890
CC(C)(NCc1ccc(OC(F)(F)F)cc1)c1nc(-c2ccc(Cl)c(O)c2)c(-c2ccncc2)[nH]1 | nM | 940
COc1ccc2nccc(NN=Cc3ccc(N(C)C)cc3)c2c1 | nM | 800
CCCc1cc(Cc2cnc(N)nc2N)cc2c1OC(C)C2C (stereo unspecified) | nM | 670
COc1ccc(Cl)cc1N1CCN(CCCNC(=O)c2ccc(-c3nc4cc(Cl)c(F)cc4[nH]3)c(F)c2)CC1 | nM | 1110
O=C(/C=C/c1ccc(Cl)c(Cl)c1)NCCCCCN1CCCC(c2c[nH]c3ccccc23)C1 (stereo unspecified) | nM | 810
Cc1[nH]c2ccccc2c1C1=CCN(CCCCCC23CCCc4cccc(c42)NC3=O)CC1 (stereo unspecified) | nM | 250
CC(C)(C)OC(=O)NCc1ccc(Nc2nnc(-c3ccc(OCC(=O)NCc4cc(C(F)(F)F)cc(C(F)(F)F)c4)c([N+](=O)[O-])c3)o2)cc1 | nM | 460

###

# Tested on: P. falciparum 3D7 growth, pLDH absorbance
# Assay method text: blood-stage malaria parasite growth potency – strain 3D7, dose response (AID 2305)
pIC50: −log10 of the molar value.

Compound | pIC50
N[C@@H](Cc1cc(I)c(Oc2ccc(O)c(Cl)c2)c(I)c1)C(=O)O | 6.00
CC1CC(NCCCNc2cc(=O)c3ccccc3[nH]2)c2c(Cl)c(Cl)cc(Cl)c21 (stereo not drawn) | 6.01
O=C(/C=C/c1c(Cl)cccc1Cl)NC1CCC(CN2CCC(Cc3cc4ccccc4[nH]3)CC2)CC1 (stereo not drawn) | 6.01

###

# Tested on: P. falciparum 3D7 growth, pLDH absorbance
# Assay method text: blood-stage malaria parasite growth potency – strain 3D7, dose response (AID 2305)
Experimental endpoint: IC50 (µM)

Compound | Target | Recorded measurement
O=C(/C=C/c1ccc(Cl)c(Cl)c1)NCCCCCN1C2CCC1CC(c1c[nH]c3ccccc13)C2 (configuration not stated) | P. falciparum 3D7 growth, pLDH absorbance | 0.84
CCc1cn2c3c(cc(C(=O)N[C@@H](Cc4cccc(Cl)c4)[C@H](O)CNC4CCCCC4)cc13)N(C)S(=O)(=O)CC2 | P. falciparum 3D7 growth, pLDH absorbance | 0.06
CC(C)(C)c1ccc(NC(=O)c2ccc(CN3CCCN(Cc4cccc(Cl)c4)CC3)cc2)cc1 | P. falciparum 3D7 growth, pLDH absorbance | 0.97
O=C(NCc1ccc(Cl)c(Cl)c1)c1cc(CNC2CCNCC2)ccc1O | P. falciparum 3D7 growth, pLDH absorbance | 0.86
Cc1c(OC(C)C)nc2ccccc2c1C(=O)N[C@H](c1cccc(F)c1)C1CC1 | P. falciparum 3D7 growth, pLDH absorbance | 1.09
COc1cc(Cc2cnc(N)nc2N)cc(OCC(C)(C)C(=O)O)c1OC | P. falciparum 3D7 growth, pLDH absorbance | 1.11
CC(=O)Nc1ccc(OCCN(CC(F)(F)F)c2ccc(C#N)cc2C(F)(F)F)cc1 | P. falciparum 3D7 growth, pLDH absorbance | 0.77
CCOc1ccc(-c2nonc2NC(=O)c2ccc(OC)cc2)cc1OCC | P. falciparum 3D7 growth, pLDH absorbance | 0.82
COc1c(OC)c(OC)c2ccccc2c1CNCCCCCCNCc1c(OC)c(OC)c(OC)c2ccccc12 | P. falciparum 3D7 growth, pLDH absorbance | 0.76
CN(C)c1ccc(CN2CCC(CNC(=O)c3cc(-c4ccccc4Cl)cs3)C2)cc1 (configuration not stated) | P. falciparum 3D7 growth, pLDH absorbance | 1.44
CCCCC(CC)C(=O)C(NC(=O)[C@H](CSC(c1ccccc1)(c1ccccc1)c1ccccc1)NC(=O)OC(C)(C)C)C(=O)OC (some centres not stated) | P. falciparum 3D7 growth, pLDH absorbance | 1.02
COc1ccc(N2C(=O)C3C(C2=O)C2(C)c4ccccc4C3(C)c3ccccc32)c([N+](=O)[O-])c1 (configuration not stated) | P. falciparum 3D7 growth, pLDH absorbance | 0.72
CS(=O)(=O)CCNCc1cccc(-c2cc3c(Nc4ccc5c(cnn5Cc5ccccc5)c4)ncnc3s2)c1 | P. falciparum 3D7 growth, pLDH absorbance | 0.55
O=C(Nc1cccc(-c2nn3ncccc3c2-c2ccnc(Nc3cccc(C(F)(F)F)c3)n2)c1)c1c(F)cccc1F | P. falciparum 3D7 growth, pLDH absorbance | 0.65
Cc1ccc2nc(C)cc(NN=Cc3ccccc3[N+](=O)[O-])c2c1 | P. falciparum 3D7 growth, pLDH absorbance | 0.17
COc1ccc(CNCc2cccc(-c3cccc(-c4nc5ccc(F)cc5[nH]4)c3)c2)cc1 | P. falciparum 3D7 growth, pLDH absorbance | 0.3
Cc1ccccc1C1CCN(C2CCC(NC(=O)/C=C/c3ccccc3C(F)(F)F)CC2)CC1 (configuration not stated) | P. falciparum 3D7 growth, pLDH absorbance | 1.41

The origin of these recorded values is PubChem BioAssay AID2305.
